Reference source: patent US10500202B2

experiment: PAMPA permeability; assay type: in vitro ADME; conditions: pH 7, FeSSIF
measurement-kind: Papp (nm/s)
State the answer as a number, implicitly in nm/s.

Which Papp reading was recorded for the molecule CN1CC(=O)N2[C@H](c3ccc4c(c3)OCO4)c3[nH]c4ccccc4c3C[C@@H]2C1=O [Tadalafil] ? 8

---

assay: PAMPA permeability; assay type: in vitro ADME; conditions: pH 7, FaSSIF
measurement-kind: Papp (×10⁻⁶ cm/s)
Output spec: scalar in ×10⁻⁶ cm/s, unitless text.

If you can, please state the reported Papp value of CN1CC(=O)N2[C@H](c3ccc4c(c3)OCO4)c3[nH]c4ccccc4c3C[C@@H]2C1=O . 0.6

---

test: PAMPA permeability; format: in vitro ADME; conditions: pH 7, Water
measurement-kind: Papp at 4 h (×10⁻⁶ cm/s)
Could you give me the number in ×10⁻⁶ cm/s? Just the number is fine.

GET /values?readout=Papp at 4 h&item= CN1CC(=O)N2[C@H](c3ccc4c(c3)OCO4)c3[nH]c4ccccc4c3C[C@@H]2C1=O 0.6
